Test system: Strongylocentrotus purpuratus
testProtocol: Desensitization of NAADP receptor in Strongylocentrotus purpuratus egg homogenates assessed as inhibition of NAADP-induced Ca2+ release pre-treated for 7 mins before NAADP addition by Fluo-3 dye based fluorometric assay relative to NAADP
assayMetric: Ratio IC50
Provide a numeric answer; units are not to be included.

Nc1ncnc2c1nc(Br)n2[C@@H]1O[C@H](COP(=O)([O-])OP(=O)(O)OC[C@@H]2O[C@H]([n+]3cccc(C(=O)O)c3)[C@@H](O)[C@H]2O)[C@@H](O)[C@H]1OP(=O)(O)O 32.6
[N-]=[N+]=NCCCc1cc(C(=O)O)c[n+]([C@H]2O[C@@H](COP(=O)(O)OP(=O)([O-])OC[C@H]3O[C@@H](n4cnc5c(N)ncnc54)[C@H](OP(=O)(O)O)[C@@H]3O)[C@H](O)[C@@H]2O)c1 97
CC(=O)NCCCc1cc(C(=O)O)c[n+]([C@H]2O[C@@H](COP(=O)(O)OP(=O)([O-])OC[C@H]3O[C@@H](n4cnc5c(N)ncnc54)[C@H](OP(=O)(O)O)[C@@H]3O)[C@H](O)[C@@H]2O)c1 2620
[N-]=[N+]=Nc1cc(C(=O)O)c[n+]([C@H]2O[C@@H](COP(=O)(O)OP(=O)([O-])OC[C@H]3O[C@@H](n4c(Br)nc5c(N)ncnc54)[C@H](OP(=O)(O)O)[C@@H]3O)[C@H](O)[C@@H]2O)c1 1220
Nc1ncnc2c1ncn2[C@@H]1O[C@H](COP(=O)([O-])OP(=O)(O)OC[C@@H]2O[C@H]([n+]3cc(O)cc(C(=O)O)c3)[C@@H](O)[C@H]2O)[C@@H](O)[C@H]1OP(=O)(O)O 49.1

Query Nc1ncnc2c1ncn2[C@@H]1O[C@H](COP(=O)([O-])OP(=O)(O)OC[C@@H]2O[C@H]([n+]3cc(CCCO)cc(C(=O)O)c3)[C@@H](O)[C@H]2O)[C@@H](O)[C@H]1OP(=O)(O)O yields Ratio IC50 of 260

---

The following compounds are shown together with reported pEC50 values.
testProtocol: Activation of NAADP receptor in Strongylocentrotus purpuratus egg homogenates assessed as Ca2+ release by Fluo-3 dye based fluorometric assay
Interpret pEC50 as the negative base-10 log of the concentration measured in mol/L.

These recorded examples may help you get a feel for the data.
Nc1ncnc2c1nc(Br)n2[C@@H]1O[C@H](COP(=O)([O-])OP(=O)(O)OC[C@@H]2O[C@H]([n+]3cccc(C(=O)O)c3)[C@@H](O)[C@H]2O)[C@@H](O)[C@H]1OP(=O)(O)O 6.15
Nc1ncnc2c1ncn2[C@@H]1O[C@H](COP(=O)([O-])OP(=O)(O)OC[C@@H]2O[C@H]([n+]3cc(O)cc(C(=O)O)c3)[C@@H](O)[C@H]2O)[C@@H](O)[C@H]1OP(=O)(O)O 5.71
CSc1cc(C(=O)O)c[n+]([C@H]2O[C@@H](COP(=O)(O)OP(=O)([O-])OC[C@H]3O[C@@H](n4cnc5c(N)ncnc54)[C@H](OP(=O)(O)O)[C@@H]3O)[C@H](O)[C@@H]2O)c1 6.82

Query Nc1ncnc2c1ncn2[C@@H]1O[C@H](COP(=O)(O)OP(=O)(O)OC[C@@H]2O[C@H]([n+]3cccc(C(=O)[O-])c3)[C@@H](O)[C@H]2O)[C@@H](O)[C@H]1OP(=O)(O)O yields pEC50 of 7.59

Query CC(=O)Nc1cc(C(=O)O)c[n+]([C@H]2O[C@@H](COP(=O)(O)OP(=O)([O-])OC[C@H]3O[C@@H](n4cnc5c(N)ncnc54)[C@H](OP(=O)(O)O)[C@@H]3O)[C@H](O)[C@@H]2O)c1 yields pEC50 of 6.20

---

testProtocol: Activation of NAADP receptor in sea urchin egg homogenates assessed as Ca2+ release
Type: tissue-based, Echinoidea
assayMetric: EC50 (µM)
The reply should contain only the number, in µM.

Query Nc1ncnc2c1ncn2[C@@H]1O[C@H](COP(=O)(O)OP(=O)(O)OC[C@@H]2O[C@H]([n+]3cccc(C(=O)[O-])c3)[C@@H](O)[C@H]2O)[C@@H](O)[C@H]1OP(=O)(O)O yields EC50 of 0.02

---

testProtocol: Activation of NAADP receptor in Strongylocentrotus purpuratus egg homogenates assessed as Ca2+ release by Fluo-3 dye based fluorometric assay
The following molecules are shown together with reported log10 EC50 values.
Quick note: numbers are log10 of EC50, with µM as the unit.

[N-]=[N+]=Nc1nc2c(N)ncnc2n1[C@@H]1O[C@H](COP(=O)([O-])OP(=O)(O)OC[C@@H]2O[C@H]([n+]3cccc(C(=O)O)c3)[C@@H](O)[C@H]2O)[C@@H](O)[C@H]1OP(=O)(O)O -1.32
CC(C)(C)OC(=O)NCCCc1cc(C(=O)O)c[n+]([C@H]2O[C@@H](COP(=O)(O)OP(=O)([O-])OC[C@H]3O[C@@H](n4cnc5c(N)ncnc54)[C@H](OP(=O)(O)O)[C@@H]3O)[C@H](O)[C@@H]2O)c1 2.20
Nc1ncnc2c1ncn2[C@@H]1O[C@H](COP(=O)([O-])OP(=O)(O)OC[C@@H]2O[C@H]([n+]3cc(CCCO)cc(C(=O)O)c3)[C@@H](O)[C@H]2O)[C@@H](O)[C@H]1OP(=O)(O)O 0.65

Query [N-]=[N+]=NCCCc1cc(C(=O)O)c[n+]([C@H]2O[C@@H](COP(=O)(O)OP(=O)([O-])OC[C@H]3O[C@@H](n4cnc5c(N)ncnc54)[C@H](OP(=O)(O)O)[C@@H]3O)[C@H](O)[C@@H]2O)c1 yields log10 EC50 of 1.49

Query CC(=O)NCCCc1cc(C(=O)O)c[n+]([C@H]2O[C@@H](COP(=O)(O)OP(=O)([O-])OC[C@H]3O[C@@H](n4cnc5c(N)ncnc54)[C@H](OP(=O)(O)O)[C@@H]3O)[C@H](O)[C@@H]2O)c1 yields log10 EC50 of 1.62

Query [N-]=[N+]=Nc1cc(C(=O)O)c[n+]([C@H]2O[C@@H](COP(=O)(O)OP(=O)([O-])OC[C@H]3O[C@@H](n4c(Br)nc5c(N)ncnc54)[C@H](OP(=O)(O)O)[C@@H]3O)[C@H](O)[C@@H]2O)c1 yields log10 EC50 of 3.13

---

testProtocol: Displacement of [32P]NAADP from NAADP receptor in Strongylocentrotus purpuratus egg homogenates incubated for 90 mins by liquid scintillation counting method
The following compounds are shown together with reported log10(IC50) values.
Quick note: numbers are log10 of IC50, with µM as the unit.

CC(=O)NCCCc1cc(C(=O)O)c[n+]([C@H]2O[C@@H](COP(=O)(O)OP(=O)([O-])OC[C@H]3O[C@@H](n4cnc5c(N)ncnc54)[C@H](OP(=O)(O)O)[C@@H]3O)[C@H](O)[C@@H]2O)c1 0.26

Query Nc1ncnc2c1ncn2[C@@H]1O[C@H](COP(=O)(O)OP(=O)(O)OC[C@@H]2O[C@H]([n+]3cccc(C(=O)[O-])c3)[C@@H](O)[C@H]2O)[C@@H](O)[C@H]1OP(=O)(O)O yields log10(IC50) of -3.43

Query [N-]=[N+]=Nc1cc(C(=O)O)c[n+]([C@H]2O[C@@H](COP(=O)(O)OP(=O)([O-])OC[C@H]3O[C@@H](n4c(Br)nc5c(N)ncnc54)[C@H](OP(=O)(O)O)[C@@H]3O)[C@H](O)[C@@H]2O)c1 yields log10(IC50) of -0.43

Query CC(C)(C)OC(=O)NCCCc1cc(C(=O)O)c[n+]([C@H]2O[C@@H](COP(=O)(O)OP(=O)([O-])OC[C@H]3O[C@@H](n4cnc5c(N)ncnc54)[C@H](OP(=O)(O)O)[C@@H]3O)[C@H](O)[C@@H]2O)c1 yields log10(IC50) of 0.51

Query Nc1ncnc2c1ncn2[C@@H]1O[C@H](COP(=O)([O-])OP(=O)(O)OC[C@@H]2O[C@H]([n+]3cc(CCCO)cc(C(=O)O)c3)[C@@H](O)[C@H]2O)[C@@H](O)[C@H]1OP(=O)(O)O yields log10(IC50) of -1.31

Query Nc1ncnc2c1ncn2[C@@H]1O[C@H](COP(=O)([O-])OP(=O)(O)OC[C@@H]2O[C@H]([n+]3cc(O)cc(C(=O)O)c3)[C@@H](O)[C@H]2O)[C@@H](O)[C@H]1OP(=O)(O)O yields log10(IC50) of -1.72

---

The following molecules are shown together with reported IC50 values.
testProtocol: Desensitization of NAADP receptor in Strongylocentrotus purpuratus egg homogenates assessed as inhibition of NAADP-induced Ca2+ release pre-treated for 7 mins before NAADP addition by Fluo-3 dye based fluorometric assay
The reply should contain only the number, in µM.

These recorded examples may help you get a feel for the data.
[N-]=[N+]=NCCCc1cc(C(=O)O)c[n+]([C@H]2O[C@@H](COP(=O)(O)OP(=O)([O-])OC[C@H]3O[C@@H](n4cnc5c(N)ncnc54)[C@H](OP(=O)(O)O)[C@@H]3O)[C@H](O)[C@@H]2O)c1 0.0456
Nc1ncnc2c1ncn2[C@@H]1O[C@H](COP(=O)([O-])OP(=O)(O)OC[C@@H]2O[C@H]([n+]3cc(O)cc(C(=O)O)c3)[C@@H](O)[C@H]2O)[C@@H](O)[C@H]1OP(=O)(O)O 0.0231

Query CSc1cc(C(=O)O)c[n+]([C@H]2O[C@@H](COP(=O)(O)OP(=O)([O-])OC[C@H]3O[C@@H](n4cnc5c(N)ncnc54)[C@H](OP(=O)(O)O)[C@@H]3O)[C@H](O)[C@@H]2O)c1 yields IC50 of 0.0042

Query Nc1ncnc2c1nc(Br)n2[C@@H]1O[C@H](COP(=O)([O-])OP(=O)(O)OC[C@@H]2O[C@H]([n+]3cccc(C(=O)O)c3)[C@@H](O)[C@H]2O)[C@@H](O)[C@H]1OP(=O)(O)O yields IC50 of 0.0153

Query CC(C)(C)OC(=O)NCCCc1cc(C(=O)O)c[n+]([C@H]2O[C@@H](COP(=O)(O)OP(=O)([O-])OC[C@H]3O[C@@H](n4cnc5c(N)ncnc54)[C@H](OP(=O)(O)O)[C@@H]3O)[C@H](O)[C@@H]2O)c1 yields IC50 of 0.942

Query NCCCc1cc(C(=O)O)c[n+]([C@H]2O[C@@H](COP(=O)(O)OP(=O)([O-])OC[C@H]3O[C@@H](n4cnc5c(N)ncnc54)[C@H](OP(=O)(O)O)[C@@H]3O)[C@H](O)[C@@H]2O)c1 yields IC50 of 674

Query [N-]=[N+]=Nc1cc(C(=O)O)c[n+]([C@H]2O[C@@H](COP(=O)(O)OP(=O)([O-])OC[C@H]3O[C@@H](n4c(Br)nc5c(N)ncnc54)[C@H](OP(=O)(O)O)[C@@H]3O)[C@H](O)[C@@H]2O)c1 yields IC50 of 0.576
